B1: TSN (parent)
chain: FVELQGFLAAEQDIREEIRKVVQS

variants of: B1; test: protein stability index of a GFP-peptide fusion (GPS, HEK-293T) (PSI 1-6); higher = more stable; conditions: c terminus: a fixed tail appended;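 further: lentivirally expressed fusions sorted by FACS into six bins by GFP to DsRed ratio, PSI derived from sequencing read proportions per bin multiplied by bin number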
Criterion: protein stability index meeting or surpassing 2. Met: Condition met. Not met: Condition not met.

Example entries and their recorded answers appear below.
I14E = Condition met
E3H = Condition met
I18R = Condition not met
I14D = Condition not met
Q23F = Condition met
R19Y = Condition not met
Q12E = Condition met
S24G = Condition met
L4M = Condition met
K20L = Condition not met

Request: Is protein stability index for L8M at or above 2?
Result: Condition met

Request: Is protein stability index for E3F at or above 2?
Result: Condition not met

Request: Is protein stability index for L4N at or above 2?
Result: Condition not met

Request: Is protein stability index for V2Q at or above 2?
Result: Condition not met
